All figures here come from the supplement of paper PMC8728848.

Kindly supply the reported glycan array binding signal (z-score) values for the records listed here.
molecular target: Fuc(a1-3)[Gal3S(b1-4)]GlcNAc6S; assay: glycan array binding signal (z-score within array); higher = stronger binding; conditions: glycan notation: IUPAC condensed, linker removed
This is one part of a sample in which the strongest signals are shown more often than they occur.
Give the figure only, with no unit attached.

Lab book: glycan array binding signal (z-score) of Aap lectin (Staphylococcus epidermidis) (protein) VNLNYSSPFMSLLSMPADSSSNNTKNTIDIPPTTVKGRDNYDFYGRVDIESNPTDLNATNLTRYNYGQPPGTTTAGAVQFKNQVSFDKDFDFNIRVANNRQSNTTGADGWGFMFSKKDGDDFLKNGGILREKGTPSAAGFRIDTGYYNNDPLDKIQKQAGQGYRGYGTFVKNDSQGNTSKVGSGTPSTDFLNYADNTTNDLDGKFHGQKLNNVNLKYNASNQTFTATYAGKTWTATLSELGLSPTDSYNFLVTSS noted as -0.816

For record Fap1 (Streptococcus parasanguis) (protein) KATSKGTEEKQDSVRENLDKMISEAEVLNDMAARKLITLDAEQQLELMKSLVATQSQLEATKNLIGDPNATVADLQIAYTTLGNNTQALGNELIKLNPNGQIYAVLNNTEASRAATLRSTTTGTKTTFTISDFSNGGTQYYWAGGNANNLKNPISSISAVYDSATGKISWTVEYDPTTILKSPALKTLKTYTGIYIDTSSDSKLSTPTNVLIDGAATNPVTNFYGNGSKGIEYVSKGTTKGVTKHTITFDTAFSGRANDLADLEIKMLAATTLSDPHFYEDGSKGNYGRYNGQTAPYVIANDSGTAIGGYQVSGVNADSIPSDTT the listed glycan array binding signal (z-score) is 2.23

Entry PEB3 (Campylobacter jejuni), Q0PBL7 (protein) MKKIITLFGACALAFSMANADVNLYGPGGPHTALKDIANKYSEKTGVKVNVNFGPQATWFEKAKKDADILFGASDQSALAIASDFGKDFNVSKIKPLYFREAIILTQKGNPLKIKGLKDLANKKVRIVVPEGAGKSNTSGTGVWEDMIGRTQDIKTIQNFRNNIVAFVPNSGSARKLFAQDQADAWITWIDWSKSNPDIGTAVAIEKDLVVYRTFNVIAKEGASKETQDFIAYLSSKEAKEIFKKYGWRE , glycan array binding signal (z-score) reported as 0.696

Reported glycan array binding signal (z-score) of PEB3 Cj0289c (Campylobacter jejuni), Q9PIK7 (protein) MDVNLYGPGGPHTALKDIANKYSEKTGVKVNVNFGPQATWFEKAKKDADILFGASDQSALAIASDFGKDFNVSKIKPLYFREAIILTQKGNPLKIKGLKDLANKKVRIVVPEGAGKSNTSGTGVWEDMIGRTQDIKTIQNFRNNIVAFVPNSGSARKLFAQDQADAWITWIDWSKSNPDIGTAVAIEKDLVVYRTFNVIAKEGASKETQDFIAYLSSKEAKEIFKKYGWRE : 0.228
